Tested on: Serratia marcescens expressing IMP-1 (CL5741)
Type: cell-based
Details: IMP-1 strain CL5741, with imipenem 1 μg/ml, 95% inhibition of growth
# Serratia marcescens MITC95 per record follows
Unit µM implied. Number only.

// known answers, use as guide
// returns reported Serratia marcescens MITC95 for input NCCNS(=O)(=O)c1ccc(C2=CC(N)CCC2)c(-c2nn[nH]n2)c1S(N)(=O)=O (centres unmarked) [Example 338]
1.563

// returns reported Serratia marcescens MITC95 for input NCCNS(=O)(=O)c1ccc(-c2cccc(NC[C@@H](N)CO)c2)c(-c2nn[nH]n2)c1S(N)(=O)=O [Example 349]
1.563

// returns reported Serratia marcescens MITC95 for input NS(=O)(=O)c1c(S(=O)(=O)N[C@@H]2CCNC2)ccc(-c2cccn3ccnc23)c1-c1nn[nH]n1 [Example 291]
1.563

// returns reported Serratia marcescens MITC95 for input NC[C@H](N)CNS(=O)(=O)c1ccc(-c2cccc3ccc(N)nc23)c(-c2nn[nH]n2)c1S(N)(=O)=O [Example 371]
3.125

// returns reported Serratia marcescens MITC95 for input Nc1nc2c(-c3ccc(S(=O)(=O)NC[C@@H]4CCNC4)c(S(N)(=O)=O)c3-c3nn[nH]n3)cccc2[nH]1 [Example 263]
0.7813

// returns reported Serratia marcescens MITC95 for input NC[C@@H](CO)NS(=O)(=O)c1ccc(-c2ccc(N)nc2)c(-c2nn[nH]n2)c1S(N)(=O)=O [Example 409]
1.563

// returns reported Serratia marcescens MITC95 for input NCCNS(=O)(=O)c1ccc(-c2ccccc2NC(=O)CN)c(-c2nn[nH]n2)c1S(N)(=O)=O [Example 452]
3.125

// returns reported Serratia marcescens MITC95 for input NC[C@@H](CO)NS(=O)(=O)c1ccc(-c2ccnc(N)c2)c(-c2nn[nH]n2)c1S(N)(=O)=O [Example 380]
0.7813

// returns reported Serratia marcescens MITC95 for input NC(=O)c1nc2c(-c3ccc(S(=O)(=O)N[C@H]4CCNC4)c(S(N)(=O)=O)c3-c3nn[nH]n3)cccc2[nH]1 [Example 292]
3.125

// returns reported Serratia marcescens MITC95 for input C[C@@H](CN)NS(=O)(=O)c1ccc(-c2ccnc(N)c2)c(-c2nn[nH]n2)c1S(N)(=O)=O [Example 398]
1.563

Further cases:
// returns reported Serratia marcescens MITC95 for input NC[C@@H](O)CNS(=O)(=O)c1ccc(-c2cccc3[nH]cnc23)c(-c2nn[nH]n2)c1S(N)(=O)=O [Example 301]
0.3906

// returns reported Serratia marcescens MITC95 for input C[C@H](N)c1nc2c(-c3ccc(S(=O)(=O)N[C@@H]4CCNC4)c(S(N)(=O)=O)c3-c3nn[nH]n3)cccc2[nH]1 [Example 272]
1.563

// returns reported Serratia marcescens MITC95 for input NCCNS(=O)(=O)c1ccc(-c2cccc3[nH]c([C@H](N)CN)nc23)c(-c2nn[nH]n2)c1S(N)(=O)=O [Example 335]
3.125

// returns reported Serratia marcescens MITC95 for input N[C@H](CO)c1nc2c(-c3ccc(S(=O)(=O)N[C@H]4CNC[C@H]4N)c(S(N)(=O)=O)c3-c3nn[nH]n3)cccc2[nH]1 [Example 323]
3.125

====

# pIC50 per record follows
Biological target: IMP-1 (Serratia marcescens)
Sequence (P52699 whole entry, looked up, species assumed): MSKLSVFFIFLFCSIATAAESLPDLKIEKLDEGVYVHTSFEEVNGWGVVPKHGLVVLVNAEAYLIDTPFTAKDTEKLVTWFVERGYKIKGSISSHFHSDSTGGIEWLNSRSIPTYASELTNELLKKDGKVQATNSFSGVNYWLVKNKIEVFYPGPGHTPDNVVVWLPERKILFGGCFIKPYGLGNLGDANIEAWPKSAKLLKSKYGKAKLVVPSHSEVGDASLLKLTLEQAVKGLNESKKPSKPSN
Experiment: biochemical
Type: biochemical
Details: fluorescence assay, CCF2-FA substrate, 2 pM enzyme, 2 hours at 25° C.; read-out: IMP-1 IC50
Scale: pIC50 equals -log10([C]), with [C] in mol/L.

// known answers, use as guide
// returns reported pIC50 for input NCCNc1cc(-c2ccc(S(=O)(=O)N[C@@H]3CCNC3)c(S(N)(=O)=O)c2-c2nn[nH]n2)ccn1 [Example 458]
8.42

// returns reported pIC50 for input NC[C@H](N)CNS(=O)(=O)c1ccc(-c2cccnc2N)c(-c2nn[nH]n2)c1S(N)(=O)=O [Example 213]
8.81

// returns reported pIC50 for input NCCNS(=O)(=O)c1ccc(-c2cccc(NC(=O)[C@@H](N)CN)c2)c(-c2nn[nH]n2)c1S(N)(=O)=O [Example 453]
8.45

Further cases:
// returns reported pIC50 for input Nc1nc2c(-c3ccc(S(=O)(=O)N4CC(N)C4)c(S(N)(=O)=O)c3-c3nn[nH]n3)cccc2s1 [Example 147]
9.31

// returns reported pIC50 for input Nc1nc2c(-c3ccc(S(=O)(=O)NC4CN5CCC4CC5)c(S(N)(=O)=O)c3-c3nnn[nH]3)cccc2s1.O=C(O)C(F)(F)F (centres unmarked) [Example 97, 2,2,2-trifluoroacetate]
9.42
